- TGT: Amine oxidase [flavin-containing] A (Homo sapiens, UniProt P21397)
- Sequence (P21397 whole entry): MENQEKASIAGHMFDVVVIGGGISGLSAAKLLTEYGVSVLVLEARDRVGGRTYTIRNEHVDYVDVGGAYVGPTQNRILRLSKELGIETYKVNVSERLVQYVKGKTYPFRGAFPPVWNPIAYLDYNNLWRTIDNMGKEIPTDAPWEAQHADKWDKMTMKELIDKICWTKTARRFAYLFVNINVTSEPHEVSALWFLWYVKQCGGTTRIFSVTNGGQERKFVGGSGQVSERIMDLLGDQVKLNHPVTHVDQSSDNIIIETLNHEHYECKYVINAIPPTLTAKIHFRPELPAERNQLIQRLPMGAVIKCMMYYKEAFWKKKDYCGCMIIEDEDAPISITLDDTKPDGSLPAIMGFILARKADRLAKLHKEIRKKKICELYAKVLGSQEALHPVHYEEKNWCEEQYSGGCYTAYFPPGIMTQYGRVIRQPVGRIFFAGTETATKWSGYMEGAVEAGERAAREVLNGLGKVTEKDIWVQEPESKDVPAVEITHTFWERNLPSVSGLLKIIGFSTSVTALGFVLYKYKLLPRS
- TEST_METHOD_NOTES: Inhibition of human recombinant MAOA expressed in baculovirus infected BTI insect cells after 20 mins by spectrofluorimetric analysis
OUTCOME_MEASURE: pKi
Answers are plain numbers, as −log10 of the molar value.

Find the measured pKi of O=C(/C=C/c1cccc(Cl)c1)Oc1ccc2c(c1)CC(=O)O2 and report it. 5.99

Record pKi per entry; entries follow.
1. Cc1cc2cc(NC(=O)c3ccc[n+](C)c3)ccc2[nH]1
2. Cc1cc2cc(NC(=O)c3cccc(S(=O)(=O)O)c3)ccc2[nH]1

[5.26, 4.17]
